Data provenance is ChEMBL document CHEMBL1201862.

# Tested on: SN12C
# Assay method text: NCI tumour cell line growth inhibition, 48 h
Active and inactive are the calls of the source. Rule as the data show it: active = GI50 up to about 1.1 µM and inactive = higher.
Allowed answers: active, inactive

Example cases with answers are listed next.
- COc1ccc([C@@H]2OC(=O)C3C2C(=O)O[C@H]3c2ccc(OC)cc2)cc1 (some centres not stated): inactive
- C=CC(O)(CBr)CCC(Br)C(=C)C (configuration not stated): inactive
- CCCCCCCCCCCCC(Br)C(C)=O (configuration not stated): inactive
- Cc1cccc(CNc2[nH]cnc3nncc2-3)c1: inactive
- CCCCC/C(=N\c1[nH]nnc1C(N)=O)OCC: inactive
- CC(C)[C@H](COC(C)(C)C)/N=C/N1CSc2ccccc21: inactive
- CCCC(=O)OCC1OC(n2cc(F)c(=O)[nH]c2=O)CC1O (configuration not stated): active
- Cc1cccc(C)c1NC(=O)CCC(=O)CC(=O)C(C)C: inactive
- O=C(CCSC(CC(=O)c1ccc(Cl)cc1)c1ccc(Cl)cc1)Nc1ccc(Cl)cc1 (configuration not stated): inactive
- CCOC(=O)C1(CO)CSCCSC1: inactive

Query: Please let me know the test result on file for O=C1C(Cl)C(c2ccccc2O)N1n1cnc2ccccc2c1=O (configuration not stated) .
Reply: inactive

Query: Outcome? `O=C1c2ccccc2-n2c1nc1ccc([N+](=O)[O-])cc1c2=O`
Reply: inactive

Query: Assay result, entry `Cn1c(=O)n2n(c1=O)[C@@H](c1ccccc1)[C@H]2c1ccccc1` — outcome?
Reply: inactive

Query: Called result for `Cc1cc(NS(=O)(=O)c2ccc(Nc3c4ccccc4nc4ccc(C(=O)Nc5ccc(S(=O)(=O)N=C(N)N)cc5)cc34)cc2)no1`
Reply: inactive

Query: Tell me the assay call for `Cc1cc(S(=O)(=O)/N=C(\NN)NCC(=O)NN)c(S)cc1Cl` please.
Reply: inactive

Query: Look up the recorded call for `Cc1cc(C)c(S(=O)(=O)N(CCCCCCN)OCCCON(CCCCCCN)S(=O)(=O)c2c(C)cc(C)cc2C)c(C)c1` in this test.
Reply: inactive

Query: What was the test verdict on `O=[N+]([O-])/C(C(Cl)=C(Cl)Cl)=C(/Sc1ccccc1)N1CCCCC1` ?
Reply: inactive

Query: What is the recorded call for this molecule in the test? N#CC(c1ccc(Cl)cc1)c1cccc(Cl)n1 (configuration not stated)
Reply: inactive

Query: Dear colleague, could you share the recorded outcome for `Cc1ccc(S(=O)(=O)N2CCc3cc(O)c([N+](=O)[O-])cc32)cc1` when you have a moment?
Reply: inactive

Query: For `NCCNc1ccc(NCCN)c2c1C(=O)c1c(O)ccc(O)c1C2=O` , what call appears in the results of this test?
Reply: active

Query: Hi team, can someone confirm the assay call for `Cc1ccccc1NC(=O)C(=O)CC(=O)c1ccc([N+](=O)[O-])cc1` ?
Reply: inactive

Query: Tell me the assay call for CCOC12OC3=C(CC1CC1=C(CCC1=O)O2)C(=O)CC3 (configuration not stated) please.
Reply: inactive

====

Kindly state GI50 for each of the entries shown.
# Tested on: ACHN
# Assay method text: NCI tumour cell line growth inhibition, 48 h
Calls of active or inactive are those of the source. Cut-off read from the data, not from the text of the source: active = GI50 up to about 1.1 µM and inactive = higher.

Solved cases (3 shown):
* CC(C)OC(=O)C1Cc2c([nH]c3ccccc23)C(c2ccccc2)N1 (stereo unspecified) | 93.8 µM (inactive)
* COC(=O)C(Cc1nc2ccc(Cl)cc2nc1O)/C(=N/O)C(=O)Nc1cccc(Cl)c1C (stereo unspecified) | > 100 µM (inactive)
* C/C1=C\CC/C(C)=C/C=C(/C(C)C)CC/C(C(=O)O)=C/CC1 | 34.5 µM (inactive)

For every record below, what is its GI50?
1. CCCCC/C(=N\c1[nH]nnc1C(N)=O)OCC
2. CC(C)NC(=O)OCCN=c1c2ccccc2ccc2ccccc12
3. CC12CCC(=O)C[C@H]1CCC(OC=O)C2Br (stereo partly specified)
4. NC1=NN(c2ccccc2)C(=O)C1C(=O)CCC(=O)Nc1cccc(Cl)c1 (stereo unspecified)
5. CC1=NN=C(N)N/C1=C/C(Sc1ccc(Cl)cc1)c1cccs1 (stereo unspecified)
6. Cc1ccc2c(c1)C(C1Cc3cccc(C)c3C1=O)OC2=O (stereo unspecified)

Reply:
["> 100 µM (inactive)", "43.1 µM (inactive)", "> 100 µM (inactive)", "> 100 µM (inactive)", "12.9 µM (inactive)", "> 100 µM (inactive)"]

Report GI50 for every entry below.
1. CC1OC(n2cc(C(F)(F)F)c(=O)[nH]c2=O)C=CC1=O (stereo unspecified)
2. CC(=O)OCC1OC(N2C(=O)C(=O)c3ccccc32)C(OC(C)=O)C(OC(C)=O)C1OC(C)=O (stereo unspecified)

Reply:
["17.5 µM (inactive)", "> 100 µM (inactive)"]
